# TARGET_OR_SYSTEM: GPR139 F109L^3×33 (Homo sapiens, UniProt Q6DWJ6, F109L)
# Construct: mGluR5 signal peptide (N)
# Sequence (Q6DWJ6 2-353 F109L limits assumed): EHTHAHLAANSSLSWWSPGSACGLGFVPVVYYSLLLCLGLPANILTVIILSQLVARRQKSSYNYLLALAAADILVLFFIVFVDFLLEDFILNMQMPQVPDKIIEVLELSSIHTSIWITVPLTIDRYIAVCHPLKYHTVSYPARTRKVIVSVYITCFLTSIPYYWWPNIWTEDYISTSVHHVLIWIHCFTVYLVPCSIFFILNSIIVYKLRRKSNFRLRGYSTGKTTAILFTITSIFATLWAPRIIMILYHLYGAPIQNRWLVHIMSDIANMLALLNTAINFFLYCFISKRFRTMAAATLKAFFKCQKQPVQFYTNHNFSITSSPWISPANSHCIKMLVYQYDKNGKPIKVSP
# PROTOCOL_DETAILS: Fluo-4 Ca2+-assay, GPR139 mutant F109L
# ASSAY_CONDITIONS: F109L mutant
pEC50: −log10 of the molar value.
Recorded measurements of pEC50, one per entry

As a guide, the following entries are already answered.
| MOLECULE | METRIC | REPORTED |
| --- | --- | --- |
| COc1cc(OC)cc(C(=O)NNC(=O)Nc2cccc3ccccc23)c1 | pEC50 | < 5.10 |
| C[C@@H](NC(=O)CNC(=O)c1cccc(Cl)c1)c1ccccc1 (racemic) | pEC50 | 5.40 |

The measured pEC50 associated with N[C@@H](Cc1ccccc1)C(=O)O reads < 1.50

The measured pEC50 associated with N[C@@H](Cc1c[nH]c2ccccc12)C(=O)O reads < 2.00
